# STUDY SYSTEM: recombinant human HPK1 (Homo sapiens (Human), UniProt Q92918)
# Sequence (Q92918 whole entry): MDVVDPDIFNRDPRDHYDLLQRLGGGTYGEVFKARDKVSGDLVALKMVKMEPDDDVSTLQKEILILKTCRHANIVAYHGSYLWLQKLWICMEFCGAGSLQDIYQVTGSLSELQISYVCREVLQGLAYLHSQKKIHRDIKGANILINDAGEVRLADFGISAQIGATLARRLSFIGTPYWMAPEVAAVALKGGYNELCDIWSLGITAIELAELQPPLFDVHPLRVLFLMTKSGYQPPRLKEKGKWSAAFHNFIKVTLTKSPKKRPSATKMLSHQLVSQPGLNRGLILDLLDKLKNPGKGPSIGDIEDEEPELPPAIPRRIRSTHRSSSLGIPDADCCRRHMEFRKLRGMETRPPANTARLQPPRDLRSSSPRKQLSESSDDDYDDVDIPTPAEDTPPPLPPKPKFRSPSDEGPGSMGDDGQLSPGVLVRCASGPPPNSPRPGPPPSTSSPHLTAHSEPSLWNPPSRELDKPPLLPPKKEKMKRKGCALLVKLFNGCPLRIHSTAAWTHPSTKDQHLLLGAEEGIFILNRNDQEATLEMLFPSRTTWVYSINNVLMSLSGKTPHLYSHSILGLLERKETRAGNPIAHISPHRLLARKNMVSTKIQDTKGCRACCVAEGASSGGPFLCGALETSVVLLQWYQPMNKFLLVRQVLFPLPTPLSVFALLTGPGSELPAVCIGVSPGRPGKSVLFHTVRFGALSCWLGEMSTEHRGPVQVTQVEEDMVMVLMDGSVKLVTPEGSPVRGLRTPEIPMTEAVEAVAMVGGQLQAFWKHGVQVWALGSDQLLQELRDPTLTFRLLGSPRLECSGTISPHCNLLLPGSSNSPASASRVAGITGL
# EXPERIMENT SUMMARY: HPK1 kinase assay (ADP-Glo)
# MEASUREMENT SETUP: 25 μM ATP, MBP substrate
Readings of IC50 for the listed molecules
ASSAY METRIC: IC50

{"MOLECULE": "CO[C@H](C)[C@@H](OC)c1c(F)c(Cl)c(-c2ccn3nc(NC(=O)[C@@H]4C[C@@H]4F)cc3c2)c2cn[nH]c12 [Example 666]", "READOUT VALUE": "101 to 500 nM"}
{"MOLECULE": "CSc1c(F)c(N(C)C)c2[nH]ncc2c1-c1ccc2nc(NC(=O)[C@@H]3C[C@@H]3F)sc2n1 [Example 194]", "READOUT VALUE": "< 100 nM"}
{"MOLECULE": "C[S+]([O-])c1c(F)c(Cl)c(-c2ccc3nc(NC(=O)[C@@H]4C[C@@H]4F)cn3c2)c2cn[nH]c12 (stereo partly drawn) [Example 303]", "READOUT VALUE": "< 100 nM"}
{"MOLECULE": "CN(CCc1ccncc1)c1c(F)c(Cl)c(-c2ccn3nc(NC(=O)[C@@H]4C[C@@H]4F)cc3c2)c2cn[nH]c12 [Example 616]", "READOUT VALUE": "< 100 nM"}
{"MOLECULE": "CN(Nc1c(F)c(Cl)c(-c2ccn3nc(NC(=O)[C@@H]4C[C@@H]4F)cc3c2)c2cn[nH]c12)C(=O)OC(C)(C)C [Example 542]", "READOUT VALUE": "< 100 nM"}
{"MOLECULE": "Nc1cc2[nH]ncc2c(-c2ccc3nc(NC(=O)[C@@H]4C[C@@H]4F)cn3c2)c1Cl [Example 284]", "READOUT VALUE": "101 to 500 nM"}
{"MOLECULE": "CCc1c(F)c(SCC(=O)O)c2[nH]ncc2c1-c1ccc2nc(NC(=O)[C@@H]3C[C@@H]3F)sc2n1 [Example 168]", "READOUT VALUE": "101 to 500 nM"}
{"MOLECULE": "CCOc1c(F)c(C)c(-c2ccc3nc(NC(=O)[C@@H]4C[C@@H]4F)sc3c2)c2cn[nH]c12 [Example 98]", "READOUT VALUE": "< 100 nM"}
{"MOLECULE": "O=C(Nc1nc2ccc(-c3c(F)ccc4[nH]ncc34)cc2s1)C1CC1 [Example 15]", "READOUT VALUE": "101 to 500 nM"}

* * *

# STUDY SYSTEM: recombinant human HPK1 (Homo sapiens (Human))
# EXPERIMENT SUMMARY: HPK1 kinase assay (ADP-Glo)
# MEASUREMENT SETUP: 25 μM ATP, MBP substrate
ASSAY METRIC: IC50

{"COMPOUND": "CC(=O)Nc1c(F)c(Cl)c(-c2ccc3nc(NC(=O)[C@@H]4C[C@@H]4F)cn3c2)c2cn[nH]c12", "READOUT VALUE": "< 100 nM"}
{"COMPOUND": "O=C(Nc1nc2ccc(-c3c(C(F)(F)F)ccc4[nH]ncc34)cc2s1)C1CC1", "READOUT VALUE": "101 to 500 nM"}
{"COMPOUND": "O=C(Nc1cc2cc(-c3c(Br)c(F)cc4[nH]ncc34)ccn2n1)[C@@H]1C[C@@H]1F", "READOUT VALUE": "< 100 nM"}
{"COMPOUND": "CCOc1c(F)c(CC)c(-c2ccc3nc(NC(=O)[C@@H]4C[C@@H]4F)sc3n2)c2cn[nH]c12", "READOUT VALUE": "< 100 nM"}
{"COMPOUND": "C=CC(=O)Nc1cc(C)c(-c2ccc3nc(NC(=O)[C@@H]4C[C@@H]4F)cn3c2)c2cn[nH]c12", "READOUT VALUE": "< 100 nM"}
{"COMPOUND": "CN(C)c1c(F)c(C(F)(F)F)c(-c2ccc3nc(NC(=O)[C@@H]4C[C@@H]4F)sc3n2)c2cn[nH]c12", "READOUT VALUE": "< 100 nM"}
{"COMPOUND": "C=Cc1n[nH]c2cc(F)c(C)c(-c3ccn4nc(NC(=O)[C@@H]5C[C@@H]5F)cc4c3)c12", "READOUT VALUE": "101 to 500 nM"}
{"COMPOUND": "O=C(Nc1nc2ccc(-c3c(Cl)c(F)c(SCCO)c4[nH]ncc34)cc2s1)[C@@H]1C[C@@H]1F", "READOUT VALUE": "< 100 nM"}
{"COMPOUND": "CN(c1c(F)c(Cl)c(-c2ccn3nc(NC(=O)[C@@H]4C[C@@H]4F)cc3c2)c2cn[nH]c12)C1CC(O)C1 (stereo partly drawn)", "READOUT VALUE": "< 100 nM"}

* * *

# STUDY SYSTEM: recombinant human HPK1 (Homo sapiens (Human))
# EXPERIMENT SUMMARY: HPK1 kinase assay (ADP-Glo)
# MEASUREMENT SETUP: 25 μM ATP, MBP substrate
pIC50: −log10 of the molar value.
Readings of pIC50 for the listed compounds

{"COMPOUND": "N#Cc1ccc2[nH]ncc2c1-c1ccn2nc(NC(=O)[C@@H]3C[C@@H]3F)cc2c1", "pIC50": "6.00 to 6.30"}
{"COMPOUND": "CCc1ccc2[nH]ncc2c1-c1ccc2nc(NC(=O)C3CC3)sc2c1", "pIC50": "6.30 to 7.00"}
{"COMPOUND": "O=C(Nc1nc2ccc(-c3c(C(F)(F)F)c(F)cc4[nH]ncc34)cc2s1)[C@@H]1C[C@@H]1F", "pIC50": "> 7.00"}
{"COMPOUND": "CNC1CCC(Nc2c(F)c(Cl)c(-c3ccn4nc(NC(=O)[C@@H]5C[C@@H]5F)cc4c3)c3cn[nH]c23)CC1 (stereo partly drawn)", "pIC50": "> 7.00"}
{"COMPOUND": "O=C(Nc1nc2ccc(-c3c(Cl)c(F)c(F)c4[nH]ncc34)cc2s1)[C@@H]1C[C@@H]1F", "pIC50": "> 7.00"}
{"COMPOUND": "COC(=O)c1c(F)c(C)c(-c2ccc3nc(NC(=O)[C@@H]4C[C@@H]4F)sc3c2)c2cn[nH]c12", "pIC50": "> 7.00"}
{"COMPOUND": "O=C(Nc1cn2cc(-c3c(CO)c(F)cc4[nH]ncc34)ccc2n1)C1CC1", "pIC50": "< 6.00"}
{"COMPOUND": "CSc1c(F)c(N(C)C)c2[nH]ncc2c1-c1ccn2nc(NC(=O)[C@@H]3C[C@@H]3F)cc2c1", "pIC50": "> 7.00"}
{"COMPOUND": "CN(C)c1c(F)c(Cl)c(-c2ccc3nc(NC(=O)[C@@H]4C[C@H]4F)cn3c2)c2cn[nH]c12", "pIC50": "> 7.00"}
{"COMPOUND": "CSc1c(F)cc2[nH]ncc2c1-c1ccn2nc(NC(=O)[C@H]3C[C@@H]3F)cc2c1", "pIC50": "> 7.00"}
{"COMPOUND": "CN1CCN(c2c(F)c(Cl)c(-c3ccc4nc(NC(=O)[C@@H]5C[C@@H]5F)sc4c3)c3cn[nH]c23)CC1", "pIC50": "6.30 to 7.00"}
{"COMPOUND": "O=C(Nc1cn2cc(-c3c(Cl)c(F)c(CN4CCC4)c4[nH]ncc34)ccc2n1)[C@@H]1C[C@@H]1F", "pIC50": "> 7.00"}
{"COMPOUND": "CN(c1ncncn1)c1c(F)c(Cl)c(-c2ccn3nc(NC(=O)[C@@H]4C[C@@H]4F)cc3c2)c2cn[nH]c12", "pIC50": "> 7.00"}
{"COMPOUND": "CN(C)c1ccc(-c2ccc3nc(NC(=O)[C@@H]4C[C@@H]4F)cn3c2)c2cn[nH]c12", "pIC50": "6.30 to 7.00"}
{"COMPOUND": "N#Cc1c(F)c(Cl)c(-c2ccn3nc(NC(=O)[C@@H]4C[C@@H]4F)cc3c2)c2cn[nH]c12", "pIC50": "> 7.00"}
{"COMPOUND": "CSc1c(F)cc2[nH]ncc2c1-c1ccc2nc(NC(=O)[C@@H]3C[C@@H]3F)sc2c1", "pIC50": "> 7.00"}
{"COMPOUND": "CN(CC1CNC1)c1c(F)c(Cl)c(-c2ccc3nc(NC(=O)[C@@H]4C[C@@H]4F)sc3c2)c2cn[nH]c12", "pIC50": "> 7.00"}
{"COMPOUND": "Cc1c(F)c(F)c2[nH]ncc2c1-c1ccn2nc(NC(=O)[C@@H]3C[C@@H]3F)cc2c1", "pIC50": "> 7.00"}

* * *

# STUDY SYSTEM: recombinant human HPK1 (Homo sapiens (Human), UniProt Q92918)
# EXPERIMENT SUMMARY: HPK1 kinase assay (ADP-Glo)
# MEASUREMENT SETUP: 25 μM ATP, MBP substrate
Readings of IC50 for the listed compounds

{"COMPOUND": "Cc1ccc2[nH]ncc2c1-c1ccc2nc(NC(=O)C3CC(F)C3)sc2c1 (centres unmarked) [Example 6]", "STUDY SYSTEM": "recombinant human HPK1 (Homo sapiens (Human), UniProt Q92918)", "IC50": "101 to 500 nM"}
{"COMPOUND": "CNC(C)c1c(F)c(Cl)c(-c2ccc3nc(NC(=O)[C@@H]4C[C@@H]4F)cn3c2)c2cn[nH]c12 (some centres unmarked)", "STUDY SYSTEM": "recombinant human HPK1 (Homo sapiens (Human), UniProt Q92918)", "IC50": "101 to 500 nM"}
{"COMPOUND": "CNC(=O)N(C)c1c(F)c(Cl)c(-c2ccc3nc(NC(=O)[C@@H]4C[C@@H]4F)cn3c2)c2cn[nH]c12", "STUDY SYSTEM": "recombinant human HPK1 (Homo sapiens (Human), UniProt Q92918)", "IC50": "< 100 nM"}
{"COMPOUND": "CCc1c(F)c(F)c2[nH]ncc2c1-c1ccc2nc(NC(=O)[C@@H]3C[C@@H]3F)sc2c1", "STUDY SYSTEM": "recombinant human HPK1 (Homo sapiens (Human), UniProt Q92918)", "IC50": "< 100 nM"}
{"COMPOUND": "C[S+]([O-])c1c(F)c(Cl)c(-c2ccc3nc(NC(=O)[C@@H]4C[C@@H]4F)sc3c2)c2cn[nH]c12 (some centres unmarked)", "STUDY SYSTEM": "recombinant human HPK1 (Homo sapiens (Human), UniProt Q92918)", "IC50": "< 100 nM"}
{"COMPOUND": "COC[C@@H](C)c1c(F)c(Cl)c(-c2ccc3nc(NC(=O)[C@@H]4C[C@@H]4F)cn3c2)c2cn[nH]c12", "STUDY SYSTEM": "recombinant human HPK1 (Homo sapiens (Human), UniProt Q92918)", "IC50": "< 100 nM"}
{"COMPOUND": "CN1CCN(c2c(F)c(Cl)c(-c3ccc4nc(NC(=O)[C@@H]5C[C@@H]5F)cn4c3)c3cn[nH]c23)CC1", "STUDY SYSTEM": "recombinant human HPK1 (Homo sapiens (Human), UniProt Q92918)", "IC50": "101 to 500 nM"}
{"COMPOUND": "C[S+]([O-])c1c(F)cc2[nH]ncc2c1-c1ccc2nc(NC(=O)[C@@H]3C[C@@H]3F)sc2n1 (some centres unmarked)", "STUDY SYSTEM": "recombinant human HPK1 (Homo sapiens (Human), UniProt Q92918)", "IC50": "> 1000 nM"}
{"COMPOUND": "Cc1c(F)c([S+](C)[O-])c2[nH]ncc2c1-c1ccc2nc(NC(=O)[C@@H]3C[C@@H]3F)cn2c1 (some centres unmarked)", "STUDY SYSTEM": "recombinant human HPK1 (Homo sapiens (Human), UniProt Q92918)", "IC50": "101 to 500 nM"}
{"COMPOUND": "COc1c(F)c(C)c(-c2ccn3nc(NC(=O)[C@@H]4C[C@@H]4F)cc3c2)c2cn[nH]c12", "STUDY SYSTEM": "recombinant human HPK1 (Homo sapiens (Human), UniProt Q92918)", "IC50": "< 100 nM"}
{"COMPOUND": "Cc1ccc2[nH]ncc2c1-c1ccc2nc(NC(=O)c3ccccn3)sc2c1", "STUDY SYSTEM": "recombinant human HPK1 (Homo sapiens (Human), UniProt Q92918)", "IC50": "> 1000 nM"}
